// reported drug sensitivity score per item
System: MDA-MB-468
Experiment: drug sensitivity score (DSS), CellTiter-Glo (DSS (AUC-based score)); higher = stronger drug effect (viability inhibition or cytotoxicity); extreme values may be limits of the assay
Conditions: incubation time: 72 h
PARAMETER MEASURED: drug sensitivity score

{"COMPOUND": "NC1(c2ccc(-c3nc4ccn5c(=O)[nH]nc5c4cc3-c3ccccc3)cc2)CCC1", "NUMBER": 0.936}
{"COMPOUND": "NC(=O)c1cccc2cn(-c3ccc([C@@H]4CCCNC4)cc3)nc12", "NUMBER": 1.06}
{"COMPOUND": "CO[C@H]1C[C@@H]2CC[C@@H](C)[C@@](O)(O2)C(=O)C(=O)N2CCCC[C@H]2C(=O)O[C@H]([C@H](C)C[C@@H]2CC[C@@H](O)[C@H](OC)C2)CC(=O)[C@H](C)/C=C(\\C)[C@@H](O)[C@@H](OC)C(=O)[C@H](C)C[C@H](C)/C=C/C=C/C=C/1C", "NUMBER": 12.2}
{"COMPOUND": "CC(C)C(=O)Nc1ccc([N+](=O)[O-])c(C(F)(F)F)c1 [Flutamide]", "NUMBER": 0}

----------
Test system: MDA-MB-436
Assay: normalised response (% of control), CellTiter-Glo; higher = more viable cells (100 = DMSO, 0 = benzethonium chloride kill control)
Settings: incubation time: 72 h

{"COMPOUND": "CCc1c(C(=O)C(N)=O)c2c(OCC(=O)O)cccc2n1Cc1ccccc1 [Varespladib] (10000 nM)", "normalised response [%]": 101}
{"COMPOUND": "CC(C)(C)Cn1c(N)nc2ccc(-c3[nH]c(C(C)(C)C)nc3-c3ccc(F)cc3)nc21 (10000 nM)", "normalised response [%]": 82.1}
{"COMPOUND": "COc1cc2c(cc1-c1c(C)noc1C)ncc1[nH]c(=O)n([C@H](C)c3ccccn3)c12 [I-BET151] (10000 nM)", "normalised response [%]": 75.6}
{"COMPOUND": "CCc1cnn2c(NCc3ccc[n+]([O-])c3)cc(N3CCCC[C@H]3CCO)nc12 [Dinaciclib] (1000 nM)", "normalised response [%]": 19.3}
{"COMPOUND": "Cc1cc2c(F)c(Oc3ncnn4cc(OC[C@@H](C)O)c(C)c34)ccc2[nH]1 [Brivanib] (1000 nM)", "normalised response [%]": 112}
{"COMPOUND": "NC(=O)c1cccc2cn(-c3ccc([C@@H]4CCCNC4)cc3)nc12 [MK-4827] (10000 nM)", "normalised response [%]": 68.9}
{"COMPOUND": "Cn1cc(C[C@@H](N)C(=O)O)c2ccccc21 [1-methyl-D-tryptophan] (5000 nM)", "normalised response [%]": 95.1}
{"COMPOUND": "CN1CCc2c(c3ccccc3n2Cc2ccc(C(=O)NO)cc2)C1 [Tubastatin A] (10000 nM)", "normalised response [%]": 72.3}
{"COMPOUND": "CC[C@@H]1C(=O)N(C)c2cnc(Nc3ccc(C(=O)N[C@H]4CC[C@H](N5CCN(CC6CC6)CC5)CC4)cc3OC)nc2N1C(C)C [Volasertib] (1000 nM)", "normalised response [%]": 65.6}

----------
Tested on: DU-4475
Test: normalised response (% of control), CellTiter-Glo; higher = more viable cells (100 = DMSO, 0 = benzethonium chloride kill control)
Settings: incubation time: 72 h

{"COMPOUND": "CC[C@H](CC#N)OC(=O)N[C@@H](C)c1cccc(NC(=O)Nc2ccc(-c3cnco3)c(OC)c2)c1 [AVN944] (1000 nM)", "normalised response / %": 29.2}
{"COMPOUND": "CN1CCc2c(c3ccccc3n2Cc2ccc(C(=O)NO)cc2)C1 [Tubastatin A] (1 nM)", "normalised response / %": 102}
{"COMPOUND": "CC(C)NC[C@@H](C(=O)N1CCN(c2ncnc3c2[C@H](C)C[C@H]3O)CC1)c1ccc(Cl)cc1 [GDC-0068] (1 nM)", "normalised response / %": 99.9}
{"COMPOUND": "COc1cc2c(N3CCN(C(=O)Nc4ccc(OC(C)C)cc4)CC3)ncnc2cc1OCCCN1CCCCC1 [Tandutinib] (1 nM)", "normalised response / %": 102}
{"COMPOUND": "CCc1c(C(=O)C(N)=O)c2c(OCC(=O)O)cccc2n1Cc1ccccc1 [Varespladib] (10 nM)", "normalised response / %": 102}
{"COMPOUND": "Cn1cc(C[C@@H](N)C(=O)O)c2ccccc21 [1-methyl-D-tryptophan] (500 nM)", "normalised response / %": 94.4}
{"COMPOUND": "NC(=O)NO [Hydroxyurea] (10 nM)", "normalised response / %": 106}
{"COMPOUND": "COc1cc2c(Oc3ccc(NC(=O)C4(C(=O)Nc5ccc(F)cc5)CC4)cc3F)ccnc2cc1OCCCN1CCOCC1 [Foretinib] (100 nM)", "normalised response / %": 99.9}
{"COMPOUND": "CN1CCN(c2nc(C3=C(c4c[nH]c5ccccc45)C(=O)NC3=O)c3ccccc3n2)CC1 [Sotrastaurin] (10 nM)", "normalised response / %": 96.8}
{"COMPOUND": "NC(=O)NO [Hydroxyurea] (100 nM)", "normalised response / %": 101}
{"COMPOUND": "Cc1c(N)nc([C@H](CC(N)=O)NC[C@H](N)C(N)=O)nc1C(=O)N[C@H](C(=O)N[C@H](C)[C@@H](O)[C@H](C)C(=O)N[C@H](C(=O)NCCc1nc(-c2nc(C(=O)NCCC[S+](C)C)cs2)cs1)[C@@H](C)O)[C@@H](OC1OC(CO)C(O)C(O)C1OC1OC(CO)C(O)C(OC(N)=O)C1O)c1cnc[nH]1 (stereo not given in full) [Bleomycin] (10 nM)", "normalised response / %": 98.1}
{"COMPOUND": "CO[C@H](C(=O)[C@@H](O)[C@@H](C)O)[C@@H]1Cc2cc3cc(O[C@H]4C[C@@H](O[C@@H]5C[C@@H](O)[C@H](O)[C@@H](C)O5)[C@H](O)[C@@H](C)O4)c(C)c(O)c3c(O)c2C(=O)[C@H]1O[C@H]1C[C@@H](O[C@@H]2C[C@@H](O)[C@@H](O[C@@H]3C[C@](C)(O)[C@H](O)[C@@H](C)O3)[C@@H](C)O2)[C@H](O)[C@@H](C)O1 [Plicamycin] (1 nM)", "normalised response / %": 107}
{"COMPOUND": "NC1(c2ccc(-c3nc4ccn5c(=O)[nH]nc5c4cc3-c3ccccc3)cc2)CCC1 [MK-2206] (1 nM)", "normalised response / %": 104}
{"COMPOUND": "CC(C)(C)Cn1c(N)nc2ccc(-c3[nH]c(C(C)(C)C)nc3-c3ccc(F)cc3)nc21 (1000 nM)", "normalised response / %": 94.8}
{"COMPOUND": "COc1cc(Nc2ncc(F)c(Nc3ccc4c(n3)N(COP(=O)(O)O)C(=O)C(C)(C)O4)n2)cc(OC)c1OC [Fostamatinib] (2.5 nM)", "normalised response / %": 93.8}

----------
Test system: MDA-MB-231
Experiment: normalised response (% of control), CellTiter-Glo; higher = more viable cells (100 = DMSO, 0 = benzethonium chloride kill control)
Conditions: incubation time: 72 h
// reported normalised response per item
PARAMETER MEASURED: normalised response (%)

{"COMPOUND": "C[C@@H](C(=O)O)c1ccc(-c2ccccc2)c(F)c1 [Tarenflurbil] (10000 nM)", "PARAMETER MEASURED": "normalised response", "SCALE UNIT": "%", "NUMBER": 98.7}
{"COMPOUND": "N[C@@H](Cc1ccc(N(CCCl)CCCl)cc1)C(=O)O [Melphalan] (12500 nM)", "PARAMETER MEASURED": "normalised response", "SCALE UNIT": "%", "NUMBER": 0.1}
{"COMPOUND": "COc1cc2c(cc1-c1c(C)noc1C)ncc1[nH]c(=O)n([C@H](C)c3ccccn3)c12 [I-BET151] (10000 nM)", "PARAMETER MEASURED": "normalised response", "SCALE UNIT": "%", "NUMBER": 62.5}

----------
Tested on: HCC1599
Test: drug sensitivity score (DSS), CellTiter-Glo (DSS (AUC-based score)); higher = stronger drug effect (viability inhibition or cytotoxicity); extreme values may be limits of the assay
Details: incubation time: 72 h

{"COMPOUND": "CC(C)NC[C@@H](C(=O)N1CCN(c2ncnc3c2[C@H](C)C[C@H]3O)CC1)c1ccc(Cl)cc1", "drug sensitivity score": 0}
{"COMPOUND": "CCCc1cc(C)[nH]c(=O)c1CNC(=O)c1cc(-c2ccnc(N3CCN(C)CC3)c2)cc2c1cnn2C(C)C", "drug sensitivity score": 3.37}
{"COMPOUND": "Cc1cc2c(F)c(Oc3ncnn4cc(OC[C@@H](C)O)c(C)c34)ccc2[nH]1", "drug sensitivity score": 0}
{"COMPOUND": "COc1cc2c(N3CCN(C(=O)Nc4ccc(OC(C)C)cc4)CC3)ncnc2cc1OCCCN1CCCCC1", "drug sensitivity score": 0}
{"COMPOUND": "CC(C)C(=O)Nc1ccc([N+](=O)[O-])c(C(F)(F)F)c1 [Flutamide]", "drug sensitivity score": 0}
{"COMPOUND": "NC(=O)NO [Hydroxyurea]", "drug sensitivity score": 0}
{"COMPOUND": "Cn1cc(C[C@@H](N)C(=O)O)c2ccccc21", "drug sensitivity score": 0}
{"COMPOUND": "CCN(CC)CCOc1ccc(C(=C(Cl)c2ccccc2)c2ccccc2)cc1", "drug sensitivity score": 6.16}

Where these numbers come from: the supplement of paper PMC4862054
